# experimental protocol: Desorption kinetics of bisphenols from bisphenol-attached PVC microplastics
# Assay type: physicochemical
# experimental context: water, pH 7.0, 291 K
Each entry below carries its recorded kslow, slow desorption rate constant.
measured endpoint: kslow, slow desorption rate constant

• O=S(=O)(c1ccc(O)cc1)c1ccc(O)cc1 = 6.789±0.198 10^-4 h^-1
• Oc1ccc(C(c2ccc(O)cc2)(C(F)(F)F)C(F)(F)F)cc1 = 5.983±0.498 10^-4 h^-1
• Oc1ccc(Cc2ccc(O)cc2)cc1 = 6.659±0.441 10^-4 h^-1
• CC(C)(c1ccc(O)cc1)c1ccc(O)cc1 = 5.979±0.555 10^-4 h^-1
• CCC(C)(c1ccc(O)cc1)c1ccc(O)cc1 = 6.751±0.274 10^-4 h^-1

====

# Tested on: human breast adenocarcinoma cells, MCF-7
# experimental protocol: cells
# Assay type: cell-based
# experimental context: calculated for concentration desorbed in water, high concentration (2 mg L^−1)
measured endpoint: Cytotoxicity (proliferation reduction), MCF-7 (%)

* Oc1ccc(Cc2ccc(O)cc2)cc1 | 20.83
* CCC(C)(c1ccc(O)cc1)c1ccc(O)cc1 | 18.79
* Oc1ccc(C(c2ccc(O)cc2)(C(F)(F)F)C(F)(F)F)cc1 | 24.19
* CC(C)(c1ccc(O)cc1)c1ccc(O)cc1 | 12.36

====

# experimental protocol: Desorption kinetics of bisphenols from bisphenol-attached PVC microplastics
# Type: physicochemical
# experimental context: warm-I, pH 6.5, 311 K
Each entry below carries its recorded kvs, very slow desorption rate constant.
measured endpoint: kvs, very slow desorption rate constant

• CCC(C)(c1ccc(O)cc1)c1ccc(O)cc1 = <0.01 10^-5 h^-1
• O=S(=O)(c1ccc(O)cc1)c1ccc(O)cc1 = 11.338±0.322 10^-5 h^-1
• Oc1ccc(C(c2ccc(O)cc2)(C(F)(F)F)C(F)(F)F)cc1 = <0.01 10^-5 h^-1
• CC(C)(c1ccc(O)cc1)c1ccc(O)cc1 = 9.069±0.647 10^-5 h^-1
• Oc1ccc(Cc2ccc(O)cc2)cc1 = 5.778±0.325 10^-5 h^-1

====

# experimental protocol: Desorption kinetics of bisphenols from bisphenol-attached PVC microplastics
# Format: physicochemical
# experimental context: water, pH 7.0, 291 K
measured endpoint: Fslow, slow fraction

* Oc1ccc(C(c2ccc(O)cc2)(C(F)(F)F)C(F)(F)F)cc1 [BPAF, bisphenol AF] | 0.272
* CCC(C)(c1ccc(O)cc1)c1ccc(O)cc1 [BPB, bisphenol B] | 0.293
* CC(C)(c1ccc(O)cc1)c1ccc(O)cc1 [BPA, bisphenol A] | 0.284
* Oc1ccc(Cc2ccc(O)cc2)cc1 [BPF, bisphenol F] | 0.371
* O=S(=O)(c1ccc(O)cc1)c1ccc(O)cc1 [BPS, bisphenol S] | 0.410

====

# experimental protocol: Desorption isotherms
# Assay type: physicochemical
# experimental context: water (Table 2)
Each entry below carries its recorded n, surface heterogeneity constant (desorption).
measured endpoint: n, surface heterogeneity constant (desorption)

* CC(C)(c1ccc(O)cc1)c1ccc(O)cc1 | 1.512
* Oc1ccc(C(c2ccc(O)cc2)(C(F)(F)F)C(F)(F)F)cc1 | 1.155
* Oc1ccc(Cc2ccc(O)cc2)cc1 | 1.594
* CCC(C)(c1ccc(O)cc1)c1ccc(O)cc1 | 1.237

====

Each entry below carries its recorded Fslow, slow fraction.
# experimental protocol: Desorption kinetics of bisphenols from bisphenol-attached PVC microplastics
# Type: physicochemical
# experimental context: warm-I, pH 6.5, 311 K
measured endpoint: Fslow, slow fraction

* O=S(=O)(c1ccc(O)cc1)c1ccc(O)cc1 | 0.325
* CCC(C)(c1ccc(O)cc1)c1ccc(O)cc1 | 0.308
* Oc1ccc(Cc2ccc(O)cc2)cc1 | 0.308
* Oc1ccc(C(c2ccc(O)cc2)(C(F)(F)F)C(F)(F)F)cc1 | 0.315
* CC(C)(c1ccc(O)cc1)c1ccc(O)cc1 | 0.303

====

# experimental protocol: Desorption kinetics of bisphenols from bisphenol-attached PVC microplastics
# Assay type: physicochemical
# experimental context: cold-I, pH 7.5, 291 K
Each entry below carries its recorded Fvs, very slow fraction.
measured endpoint: Fvs, very slow fraction

- CCC(C)(c1ccc(O)cc1)c1ccc(O)cc1 [BPB, bisphenol B]: 0.059
- Oc1ccc(C(c2ccc(O)cc2)(C(F)(F)F)C(F)(F)F)cc1 [BPAF, bisphenol AF]: 0.003
- O=S(=O)(c1ccc(O)cc1)c1ccc(O)cc1 [BPS, bisphenol S]: 0.085
- CC(C)(c1ccc(O)cc1)c1ccc(O)cc1 [BPA, bisphenol A]: 0.043

====

Each entry below carries its recorded HI, hysteresis index.
# experimental protocol: Desorption isotherms
# Type: physicochemical
# experimental context: water
measured endpoint: HI, hysteresis index

• Oc1ccc(Cc2ccc(O)cc2)cc1 [BPF, bisphenol F] = 0.252
• CC(C)(c1ccc(O)cc1)c1ccc(O)cc1 [BPA, bisphenol A] = 0.289
• Oc1ccc(C(c2ccc(O)cc2)(C(F)(F)F)C(F)(F)F)cc1 [BPAF, bisphenol AF] = 0.326
• CCC(C)(c1ccc(O)cc1)c1ccc(O)cc1 [BPB, bisphenol B] = 0.304

====

Each entry below carries its recorded Fvs, very slow fraction.
# experimental protocol: Desorption kinetics of bisphenols from bisphenol-attached PVC microplastics
# Type: physicochemical
# experimental context: water, pH 7.0, 291 K
measured endpoint: Fvs, very slow fraction

- O=S(=O)(c1ccc(O)cc1)c1ccc(O)cc1: 0.028±0.002
- CCC(C)(c1ccc(O)cc1)c1ccc(O)cc1: 0.046±0.002
- Oc1ccc(C(c2ccc(O)cc2)(C(F)(F)F)C(F)(F)F)cc1: 0.068±0.002
- CC(C)(c1ccc(O)cc1)c1ccc(O)cc1: 0.076±0.004
- Oc1ccc(Cc2ccc(O)cc2)cc1: 0.051±0.002

Reference source for all entries: paper PMC9488007
